solubility kinetic values by entry
# recorded.conditions: buffer; pH 7.4; 200.0 µM

| molecule | solubility kinetic |
| --- | --- |
| c1ccc(-c2nc3nc4ccccc4nc3n2CC2CCCO2)cc1 (stereo unspecified) | > 0.0496 mg/mL |
| S=C(NC1CC1)N1CCN(C(=S)NC2CC2)CC1 | > 0.0427 mg/mL |
| Cc1ccccc1-n1c(C)nc2ccsc2c1=O.Cl | > 0.0439 mg/mL |

Returns the measured solubility kinetic for the input molecule. Input: "O=C(Nc1ccccc1)Nc1nc2ccccc2s1"
< 0.0002 mg/mL

Next: "O=C(CNCCO)Nc1ccc(F)c(Cl)c1"
> 0.037 mg/mL

What about "COCCNC(=O)c1ccc2c(c1)ncn2-c1cccc(C)c1" ?
> 0.0464 mg/mL
